Target: Phosphatidylinositol 4,5-bisphosphate 3-kinase catalytic subunit beta isoform (Homo sapiens, UniProt P42338)
Sequence (P42338 whole entry, canonical isoform): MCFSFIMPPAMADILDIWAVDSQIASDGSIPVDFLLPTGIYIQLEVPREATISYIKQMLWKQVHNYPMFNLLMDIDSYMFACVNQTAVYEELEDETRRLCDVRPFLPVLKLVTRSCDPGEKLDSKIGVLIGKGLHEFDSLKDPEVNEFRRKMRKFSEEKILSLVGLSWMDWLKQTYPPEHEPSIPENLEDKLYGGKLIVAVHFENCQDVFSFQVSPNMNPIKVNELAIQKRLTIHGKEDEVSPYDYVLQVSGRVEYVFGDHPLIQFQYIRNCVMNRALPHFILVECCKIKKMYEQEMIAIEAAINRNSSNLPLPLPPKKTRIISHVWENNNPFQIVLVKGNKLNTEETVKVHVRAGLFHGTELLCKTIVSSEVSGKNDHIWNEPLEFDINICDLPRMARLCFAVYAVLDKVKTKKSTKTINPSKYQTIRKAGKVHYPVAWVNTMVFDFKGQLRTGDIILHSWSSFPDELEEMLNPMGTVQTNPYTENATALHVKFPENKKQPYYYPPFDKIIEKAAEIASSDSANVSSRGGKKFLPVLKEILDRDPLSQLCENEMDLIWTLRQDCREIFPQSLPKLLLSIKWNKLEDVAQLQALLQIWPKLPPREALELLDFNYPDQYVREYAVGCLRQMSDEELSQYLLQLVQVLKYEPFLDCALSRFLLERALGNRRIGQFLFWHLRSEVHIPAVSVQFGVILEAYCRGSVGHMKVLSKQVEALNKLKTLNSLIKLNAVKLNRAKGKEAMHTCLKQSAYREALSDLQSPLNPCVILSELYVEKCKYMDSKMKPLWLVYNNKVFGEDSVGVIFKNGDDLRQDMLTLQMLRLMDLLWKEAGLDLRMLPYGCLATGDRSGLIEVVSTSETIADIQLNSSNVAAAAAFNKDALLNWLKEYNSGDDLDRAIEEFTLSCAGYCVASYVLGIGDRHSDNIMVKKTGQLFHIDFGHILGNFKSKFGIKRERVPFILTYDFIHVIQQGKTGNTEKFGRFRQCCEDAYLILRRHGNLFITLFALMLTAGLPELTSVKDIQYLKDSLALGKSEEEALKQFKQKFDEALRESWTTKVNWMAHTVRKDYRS
Assay: Inhibition of human recombinant His6-tagged PI3K p110beta expressed in baculovirus using DiC8-PI(4,5)P2 as substrate after 20 mins by AlphaScreen assay
pIC50: −log10 of the molar value.
VALUE TYPE: pIC50

Worked examples follow.
The value of pIC50 measured for the compound `CN(C)C(=O)c1cc(N2CCOCC2)nc(NCc2ccccc2)n1` turned out to be 4.60

The value of pIC50 measured for the compound `N#Cc1nc(NCc2ccccc2)cc(N2CCOCC2)n1` turned out to be 5.80

The value of pIC50 measured for the compound `O=c1cc(N2CCOCC2)nc(NCc2ccccc2)[nH]1` turned out to be 5.72

The value of pIC50 measured for the compound `CNC(=O)c1cc(N2CCOCC2)nc(NCc2ccccc2)n1` turned out to be 4.64

The value of pIC50 measured for the compound `COC(=O)c1cc(NCc2ccccc2)nc(N2CCOCC2)c1` turned out to be 4.49

[A] Cc1cc(N2CCOCC2)nc(NCc2ccccc2)n1
[B] OCc1cc(NCc2ccccc2)nc(N2CCOCC2)c1
Prompt: // max by pIC50 over [ A , B ] Let me know the label of the one you choose.
Response: B
(B: 4.37, A: 3.89)

----------
Assay: Solubility of the compound in DMSO/HBSS at pH 7.4
Type: physicochemical
VALUE TYPE: solubility (µM)
Your answer should be a plain number; it is taken to be in µM.

The value of solubility measured for the molecule `O=c1cc(N2CCOCC2)nc(NCc2cccc3ccccc23)[nH]1` turned out to be 4.5

----------
Biological target: Phosphatidylinositol 4,5-bisphosphate 3-kinase catalytic subunit beta isoform (Homo sapiens)
Assay: Inhibition of human recombinant His6-tagged PI3K p110beta expressed in baculovirus using DiC8-PI(4,5)P2 as substrate after 20 mins by AlphaScreen assay
VALUE TYPE: IC50 (nM)

The value of IC50 measured for the molecule `O=c1nc(N2CCOCC2)cc(NCc2cccc3ccccc23)[nH]1` turned out to be 2600

[1] Nc1nc(NCc2ccccc2)cc(N2CCOCC2)n1
[2] O=c1cc(N2CCOCC2)nc(NCc2cccc(Cl)c2)[nH]1
Prompt: Just tell me: smaller IC50 value, 1 or 2 ? Let me know the label of the one you choose.
Response: 2

[1] O=c1cc(N2CCOCC2)nc(NCc2c(Cl)cccc2Cl)[nH]1
[2] NCc1nc(NCc2ccccc2)cc(N2CCOCC2)n1
Prompt: // max by IC50 over [ 1 , 2 ] Let me know the label of the one you choose.
Response: 2
